test: self-splicing fitness, log relative to wild type (ln ratio); higher = more splicing; Tetrahymena group I intron in knt gene, E. coli kanamycin selection, DiMSum; sequences stand for … in CUCUCU…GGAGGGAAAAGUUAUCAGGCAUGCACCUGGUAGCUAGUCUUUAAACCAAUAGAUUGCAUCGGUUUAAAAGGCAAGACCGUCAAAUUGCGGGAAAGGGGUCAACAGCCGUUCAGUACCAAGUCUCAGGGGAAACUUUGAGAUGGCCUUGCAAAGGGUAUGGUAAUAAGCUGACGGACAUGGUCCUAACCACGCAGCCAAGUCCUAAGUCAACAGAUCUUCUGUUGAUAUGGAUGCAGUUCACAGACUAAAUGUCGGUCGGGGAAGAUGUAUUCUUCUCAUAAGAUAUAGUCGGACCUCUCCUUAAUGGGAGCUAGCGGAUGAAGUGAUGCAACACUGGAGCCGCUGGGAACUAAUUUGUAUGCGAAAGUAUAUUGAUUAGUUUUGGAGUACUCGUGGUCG; conditions: 30 °C;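 further: selection with 25 µg/mL kanamycin versus none on LB agar overnight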
measurementKind: self-splicing fitness (ln)
Answers are plain numbers.

Consider the following illustrative entries.
UGCGAGCAAUAUUACGAUCA = 0.0986
CCGGAGCAAUAUUACGAGUU = -3.65
AAGGAGCAAUAUUACGAAUA = -2.18
ACAUAGCAAUAUUACGGACC = -1.56
UGGCAGCAAUAUUACGAAUG = -0.811

Batch: self-splicing fitness (ln) for all items listed.
1. UCGCAGCAAUAUUACGGUCA
2. AAACAGCAAUAUUACGACCC
3. GAAAAGCAAUAUUACGAAAU
4. CCCUAGCAAUAUUACGUGCG

Resp:
1: -0.966; 2: -0.763; 3: -1.74; 4: -2.36

* * *

experiment: self-splicing fitness, log relative to wild type (ln ratio); higher = more splicing; Tetrahymena group I intron in knt gene, E. coli kanamycin selection, DiMSum; sequences stand for … in CUCUCU…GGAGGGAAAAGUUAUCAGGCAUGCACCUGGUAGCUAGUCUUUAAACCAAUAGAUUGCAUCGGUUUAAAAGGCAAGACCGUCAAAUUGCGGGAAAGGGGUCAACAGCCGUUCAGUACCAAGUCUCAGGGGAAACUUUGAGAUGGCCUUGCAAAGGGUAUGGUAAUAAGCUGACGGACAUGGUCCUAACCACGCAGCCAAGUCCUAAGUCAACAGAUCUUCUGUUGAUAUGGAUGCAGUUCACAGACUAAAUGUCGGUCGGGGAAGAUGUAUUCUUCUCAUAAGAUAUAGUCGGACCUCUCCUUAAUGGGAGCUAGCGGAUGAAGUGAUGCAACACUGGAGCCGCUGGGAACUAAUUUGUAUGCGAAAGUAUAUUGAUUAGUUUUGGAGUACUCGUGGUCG; conditions: 30 °C
Task for the reader: assign each of the following sequences its reported self-splicing fitness (ln).
Numbers only.

Consider the following illustrative entries.
CGCGAGCAAUAUUACGUGUG = -4.51
GAUGAGCAAUAUUACGAAGU = -2.87

Batch: self-splicing fitness (ln) for all items listed.
1. GAAUAGCAAUAUUACGUGAA
2. GCUCAGCAAUAUUACGGUAU
3. UUUUAGCAAUAUUACGUGCG
4. UGUGAGCAAUAUUACGUGUA
5. GAAGAGCAAUAUUACGCUCC
6. UGGAAGCAAUAUUACGUGGA
7. UUGAAGCAAUAUUACGUGGA
8. CAGCAGCAAUAUUACGUCAC

Resp:
-1.74
-1.14
-1.42
-1.49
-2.52
-2.88
-2.33
-1.69

Batch: self-splicing fitness (ln) for all items listed.
1. UACCAGCAAUAUUACGGGAG
2. UGUCAGCAAUAUUACGUCUG
3. ACAUAGCAAUAUUACGAGCG
4. CCAAAGCAAUAUUACGUAGU
5. UCAAAGCAAUAUUACGUUCC
6. AUGGAGCAAUAUUACGCAUU

Resp:
[-1.64, -0.693, -0.74, -3.67, -2.89, -3.12]
